- MEASUREMENT_CONDITIONS: in ethanol, 313.15 K
MEASUREMENT_KIND: solubility (mole fraction)

solubility (mole fraction) reading for Cc1cnc(N)s1 : 0.157

* * *

- MEASUREMENT_CONDITIONS: in 2-butanone, 305.65 K
MEASUREMENT_KIND: solubility (mole fraction)
Enter a number only.

solubility (mole fraction) reading for Cc1cnc(N)s1 : 0.101

* * *

- MEASUREMENT_CONDITIONS: in toluene, 283.15 K
MEASUREMENT_KIND: solubility (mole fraction)
Enter a number only.

solubility (mole fraction) reading for Cc1cnc(N)s1 : 0.0136

* * *

- MEASUREMENT_CONDITIONS: in 1,4-dioxane, 278.15 K
MEASUREMENT_KIND: solubility (mole fraction)
Enter a number only.

solubility (mole fraction) reading for Cc1cnc(N)s1 : 0.0399

// data source = BigSolDB 2.1
